Data origin, for the record: ChEMBL document CHEMBL1944604

Measurement Notes: Clearance in cynomolgus monkey at 1 mg/kg, iv bolus
Format: ADME, organism-based, Macaca fascicularis
Design: dose 1 mg/kg, route intravenous
Protocol Conditions: in vivo
Measure Name: clearance (mL/min/kg)
Report as a plain number; the unit mL/min/kg is understood.

Input line: Can you share its clearance? I mean this compound: N[C@H]1CC[C@H](Nc2ncc3nc(Nc4ccc(F)cc4F)n(C4CCCC4)c3n2)CC1
Output line: 5

====

Measurement Notes: Half life in cynomolgus monkey at 1 mg/kg, iv bolus
Assay type: ADME, organism-based, Macaca fascicularis
Parameters: dose 1 mg/kg, route intravenous
Protocol Conditions: in vivo
Measure Name: half-life (h)
Report as a plain number; the unit h is understood.

Input line: Can you share its half-life? I mean this compound: N[C@H]1CC[C@H](Nc2ncc3nc(Nc4ccc(F)cc4F)n(C4CCCC4)c3n2)CC1
Output line: 37

====

Measurement Notes: Clearance in dog at 1 mg/kg, iv bolus
Assay type: ADME, organism-based, Canis lupus familiaris
Design: dose 1 mg/kg, route intravenous
Protocol Conditions: in vivo
Measure Name: clearance
Record the result as number plus unit.

Input line: Can you share its clearance? I mean this molecule: N[C@H]1CC[C@H](Nc2ncc3nc(Nc4ccc(F)cc4F)n(C4CCCC4)c3n2)CC1
Output line: 28 mL/min/kg

====

Measurement Notes: Metabolic stability of the compound in monkey liver microsomes assessed as compound remaining at 3 uM after 30 mins
Format: ADME, Macaca mulatta, Microsome
Protocol Conditions: rhesus monkey, read-out: Stability
Measure Name: remaining at 0.5 h, 3 µM
Record the result as number plus unit.

Input line: Can you share its remaining at 0.5 h, 3 µM? I mean this compound: N[C@H]1CC[C@H](Nc2ncc3nc(Nc4ccc(F)cc4F)n(C4CCCC4)c3n2)CC1
Output line: 100%

====

Measurement Notes: Metabolic stability in rat liver S9 fraction assessed as compound remaining after 60 mins
Type: ADME, subcellular
Protocol Conditions: read-out: Stability
Measure Name: remaining at 1 h

Consider the following illustrative entries.
COc1ccc(Nc2ncc3nc(Nc4ccc(F)cc4F)n(C4CCCC4)c3n2)cc1 ... > 70%
COc1ccc(Nc2ncc3nc(Nc4ccccc4F)n(C4CCCC4)c3n2)cc1 ... 35%
COc1ccc(Nc2ncc3nc(Nc4ccccc4Cl)n(C4CCCC4)c3n2)cc1 ... > 70%
COc1ccc(Nc2ncc3nc(Nc4ccccc4)n(C4CCCC4)c3n2)cc1 ... > 70%

Kindly consider the entry below.
Input line: Can you share its remaining at 1 h? I mean this compound: COc1ccc(Nc2ncc3nc(Nc4c(F)cccc4F)n(C4CCCC4)c3n2)cc1
Output line: > 70%

====

Quick list: solubility thermodynamic per entry.
Measurement Notes: Thermodynamic solubility of the compound at pH 5
Format: physicochemical
Protocol Conditions: buffer, read-out: Therm_solubility
Report as a plain number; the unit µg/mL is understood.

Consider the following illustrative entries.
N[C@H]1CC[C@H](Nc2ncc3nc(Nc4ccccc4F)n(C4CCCC4)c3n2)CC1 ... 869
N[C@H]1CC[C@H](Nc2ncc3nc(Nc4ccc(F)cc4F)n(C4CCCC4)c3n2)CC1 ... 792

Kindly consider the entry below.
Input line: Can you share its solubility thermodynamic? I mean this compound: N[C@H]1CC[C@H](Nc2ncc3nc(Nc4c(F)cccc4F)n(C4CCCC4)c3n2)CC1
Output line: 852

====

Tested Target: Mitogen-activated protein kinase 10 (Homo sapiens, UniProt P53779)
Sequence (P53779 whole entry): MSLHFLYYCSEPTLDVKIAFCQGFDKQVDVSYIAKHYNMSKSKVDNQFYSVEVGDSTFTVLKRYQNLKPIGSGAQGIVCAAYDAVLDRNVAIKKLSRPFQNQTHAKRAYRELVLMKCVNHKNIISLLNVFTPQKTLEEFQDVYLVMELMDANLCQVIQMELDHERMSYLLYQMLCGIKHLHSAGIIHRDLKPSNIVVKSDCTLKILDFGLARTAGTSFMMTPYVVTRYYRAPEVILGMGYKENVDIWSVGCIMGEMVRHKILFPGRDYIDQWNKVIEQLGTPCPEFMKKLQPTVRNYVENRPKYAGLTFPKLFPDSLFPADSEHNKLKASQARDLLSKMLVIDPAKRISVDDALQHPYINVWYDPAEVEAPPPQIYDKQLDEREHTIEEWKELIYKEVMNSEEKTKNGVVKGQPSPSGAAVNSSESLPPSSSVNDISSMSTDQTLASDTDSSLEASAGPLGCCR
Measurement Notes: Inhibition of full length Hexa-His-tagged JNK3 using GST-tagged cJun and [gamma33P]ATP as substrate after 60 mins by scintillation counting
Quick list: pIC50 per entry.
API: returns pIC50 as number; meaning -log10 of concentration in mol/L.

COc1ccc(Nc2ncc3nc(Nc4ccc(F)cc4F)n(C4CCCC4)c3n2)cc1 ... 6.85

Kindly consider the entry below.
Input line: Can you share its pIC50? I mean this compound: COc1ccc(Nc2ncc3nc(Nc4ccccc4F)n(C4CCOCC4)c3n2)cc1
Output line: 7.20

====

Measurement Notes: Aqueous solubility of the compound at pH 5
Assay type: physicochemical
Measure Name: solubility (µg/mL)
Report as a plain number; the unit µg/mL is understood.

Input line: Can you share its solubility? I mean this compound: Cl.N[C@H]1CC[C@H](Nc2ncc3nc(Nc4ccc(F)cc4F)n(C4CCCC4)c3n2)CC1
Output line: 5.7

====

Measurement Notes: Metabolic stability in human liver S9 fraction assessed as compound remaining after 60 mins
Format: ADME, subcellular
Protocol Conditions: read-out: Stability
Quick list: remaining at 1 h per entry.

COc1ccc(Nc2ncc3nc(Nc4ccccc4Cl)n(C4CCCC4)c3n2)cc1 ... > 70%
COc1ccc(Nc2ncc3nc(Nc4ccc(F)cc4F)n(C4CCCC4)c3n2)cc1 ... > 70%
COc1ccc(Nc2ncc3nc(Nc4c(F)cccc4F)n(C4CCCC4)c3n2)cc1 ... > 70%
COc1ccc(Nc2ncc3nc(Nc4ccccc4F)n(C4CCCC4)c3n2)cc1 ... 86%

Kindly consider the entry below.
Input line: Can you share its remaining at 1 h? I mean this molecule: COc1ccc(Nc2ncc3nc(Nc4ccccc4)n(C4CCCC4)c3n2)cc1
Output line: > 70%

====

Measurement Notes: AUC in dog at 1 mg/kg, iv bolus
Format: ADME, organism-based, Canis lupus familiaris
Set-up: dose 1 mg/kg, route intravenous
Protocol Conditions: plasma
Measure Name: AUC (µM·h)
Report as a plain number; the unit µM·h is understood.

Input line: Can you share its AUC? I mean this molecule: N[C@H]1CC[C@H](Nc2ncc3nc(Nc4ccc(F)cc4F)n(C4CCCC4)c3n2)CC1
Output line: 1.2

====

Measurement Notes: Volume of distribution at steady state in rat at 10 mg/kg, iv infusion
Format: ADME, organism-based
Set-up: dose 10 mg/kg, route intravenous
Protocol Conditions: in vivo, read-out: Vdss
Measure Name: Vd (L/kg)
Report as a plain number; the unit L/kg is understood.

Input line: Can you share its Vd? I mean this compound: N[C@H]1CC[C@H](Nc2ncc3nc(Nc4ccc(F)cc4F)n(C4CCCC4)c3n2)CC1
Output line: 55

====

Tested Target: Mitogen-activated protein kinase 10 (Homo sapiens, UniProt P53779)
Measurement Notes: Inhibition of full length Hexa-His-tagged JNK3 using GST-tagged cJun and [gamma33P]ATP as substrate after 60 mins by scintillation counting
Measure Name: IC50 (nM)
Report as a plain number; the unit nM is understood.

Consider the following illustrative entries.
N[C@H]1CC[C@H](Nc2ncc3nc(Nc4c(F)cccc4F)n(C4CCCC4)c3n2)CC1 ... 13
CC(C)Nc1ncc2nc(Nc3ccccc3F)n(C3CCCC3)c2n1 ... 110
COc1ccc(Nc2ncc3nc(Nc4ccccc4F)n([C@H]4CC[C@@H](C(N)=O)CC4)c3n2)cc1 ... 24
O[C@H]1CC[C@H](Nc2ncc3nc(Nc4ccccc4F)n(C4CCCC4)c3n2)CC1 ... 12
N[C@H]1CC[C@H](Nc2ncc3nc(Nc4ccccc4F)n(C4CCCC4)c3n2)CC1 ... 31

Kindly consider the entry below.
Input line: Can you share its IC50? I mean this compound: CCn1c(Nc2ccccc2F)nc2cnc(Nc3ccc(OC)cc3)nc21
Output line: 360

====

Measurement Notes: Volume of distribution at steady state in dog at 1 mg/kg, iv bolus
Assay type: ADME, organism-based, Canis lupus familiaris
Set-up: dose 1 mg/kg, route intravenous
Protocol Conditions: in vivo, read-out: Vdss
Measure Name: Vd (L/kg)
Report as a plain number; the unit L/kg is understood.

Input line: Can you share its Vd? I mean this compound: N[C@H]1CC[C@H](Nc2ncc3nc(Nc4ccc(F)cc4F)n(C4CCCC4)c3n2)CC1
Output line: 30

====

Tested Target: Mitogen-activated protein kinase 9 (Homo sapiens, UniProt P45984)
Sequence (P45984 whole entry): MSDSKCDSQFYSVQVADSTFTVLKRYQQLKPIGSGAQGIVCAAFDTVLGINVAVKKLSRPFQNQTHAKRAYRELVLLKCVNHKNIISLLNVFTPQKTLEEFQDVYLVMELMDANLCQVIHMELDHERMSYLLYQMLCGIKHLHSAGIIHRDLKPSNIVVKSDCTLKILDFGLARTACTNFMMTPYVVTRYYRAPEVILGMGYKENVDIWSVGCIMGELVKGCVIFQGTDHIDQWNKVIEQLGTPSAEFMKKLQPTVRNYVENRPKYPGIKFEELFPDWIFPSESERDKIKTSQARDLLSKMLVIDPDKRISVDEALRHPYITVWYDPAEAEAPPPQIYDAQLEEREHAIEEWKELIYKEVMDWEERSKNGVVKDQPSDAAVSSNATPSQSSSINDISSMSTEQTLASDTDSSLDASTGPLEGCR
Measurement Notes: Inhibition of full length Hexa-His-tagged JNK2 using GST-tagged cJun and [gamma33P]ATP as substrate after 60 mins by scintillation counting
Measure Name: log10(IC50) (log10 of the value in nM)
The base-10 logarithm of IC50, taken with IC50 in nM, is what appears here.

Consider the following illustrative entries.
COc1ccc(Nc2ncc3nc(Nc4ccccc4F)n([C@H]4CC[C@@H](O)CC4)c3n2)cc1 ... 1.15
COc1ccc(Nc2ncc3nc(Nc4ccccc4F)n(C4CCCC4)c3n2)cc1 ... 2.08
Fc1ccccc1Nc1nc2cnc(NC3CCCCC3)nc2n1C1CCCC1 ... 1.66
CC(C)Nc1ncc2nc(Nc3ccccc3F)n(C3CCCC3)c2n1 ... 1.82
N[C@H]1CC[C@H](Nc2ncc3nc(Nc4ccccc4F)n(C4CCCC4)c3n2)CC1 ... 1.41

Input line: Can you share its log10(IC50)? I mean this compound: N[C@H]1CC[C@H](Nc2ncc3nc(Nc4c(F)cccc4F)n(C4CCCC4)c3n2)CC1
Output line: 0.95

Input line: Can you share its log10(IC50)? I mean this compound: COc1ccc(Nc2ncc3nc(Nc4ccccc4F)n(-c4ccccc4)c3n2)cc1
Output line: 3.00

Input line: Can you share its log10(IC50)? I mean this compound: CCNc1ncc2nc(Nc3ccccc3F)n(C3CCCC3)c2n1
Output line: 2.15

Input line: Can you share its log10(IC50)? I mean this compound: COc1ccc(Nc2ncc3nc(Nc4c(F)cccc4F)n(C4CCCC4)c3n2)cc1
Output line: 1.66
